measurement-description: Therapeutic index, ratio of HC10 for mouse RBC to IC50 for cytotoxicity against human HeLa cells
Format: toxicity, cell-based
particulars: mouse RBC and HeLa cells, read-out: TI
Non-standard residues stand in square brackets, D forms with d. Residues, ends and D or L forms follow the SMILES beside them. Dip = N[C@H](C(=O)O)C(c1ccccc1)c1ccccc1
measured-attribute: selectivity ratio
Write no unit; give the number alone.

{"compound": "CC(C)C[C@H](NC(=O)[C@H](CC(C)C)NC(=O)[C@H](CCC(=O)O)NC(=O)[C@H](CCCCN)NC(=O)[C@H](CC(C)C)NC(=O)[C@H](CC(C)C)NC(=O)[C@H](CCCCN)NC(=O)[C@H](CCCCN)NC(=O)[C@H](CC(C)C)NC(=O)[C@H](CC(C)C)NC(=O)[C@H](CCCCN)NC(=O)[C@H](CCCCN)NC(=O)[C@H](CC(C)C)NC(=O)[C@@H](N)CC(C)C)C(N)=O (H-LLKKLLKKLLKELL-NH2)", "selectivity ratio": 0.352}

## Task Would you kindly share the measured selectivity ratio for CC(C)C[C@H](NC(=O)[C@H](CC(C)C)NC(=O)[C@H](CCCCN)NC(=O)[C@H](CCCCN)NC(=O)[C@H](CC(C)C)NC(=O)[C@H](CC(C)C)NC(=O)[C@H](CCCCN)NC(=O)[C@H](CCCCN)NC(=O)[C@H](CC(C)C)NC(=O)[C@H](CC(C)C)NC(=O)[C@H](CCCCN)NC(=O)[C@H](CCCCN)NC(=O)[C@H](CCC(=O)O)NC(=O)[C@@H](N)CC(C)C)C(N)=O (H-LEKKLLKKLLKKLL-NH2) ?
## Result 4.62

## Task Would you kindly share the measured selectivity ratio for CC(C)C[C@H](NC(=O)[C@H](CC(C)C)NC(=O)[C@H](CCCCN)NC(=O)[C@H](CCCCN)NC(=O)[C@H](CC(C)C)NC(=O)[C@H](CC(C)C)NC(=O)[C@H](CCCCN)NC(=O)[C@H](CCCCN)NC(=O)[C@H](CC(C)C)NC(=O)[C@H](CC(C)C)NC(=O)[C@H](CCCCN)NC(=O)[C@H](CCCCN)NC(=O)[C@H](CC(C)C)NC(=O)[C@H](CC(C)C)NC(=O)[C@@H](N)CCCCN)C(=O)N[C@@H](CCCCN)C(N)=O (H-KLLKKLLKKLLKKLLK-NH2) ?
## Result 2.31

## Task Would you kindly share the measured selectivity ratio for NCCCC[C@H](NC(=O)[C@@H](NC(=O)[C@H](Cc1c[nH]c2ccccc12)NC(=O)[C@H](CCCCN)NC(=O)[C@H](CCCCN)NC(=O)[C@H](Cc1c[nH]c2ccccc12)NC(=O)[C@H](Cc1c[nH]c2ccccc12)NC(=O)[C@H](CCCCN)NC(=O)[C@@H](N)CCCCN)C(c1ccccc1)c1ccccc1)C(N)=O [RUXOTEMITIDE] (H-KKWWKKW[Dip]K-NH2) ?
## Result 10.6

## Task Would you kindly share the measured selectivity ratio for CC(C)C[C@H](NC(=O)[C@H](CC(C)C)NC(=O)[C@H](CCCCN)NC(=O)[C@H](CCCCN)NC(=O)[C@H](CC(C)C)NC(=O)[C@H](CC(C)C)NC(=O)[C@H](CCC(=O)O)NC(=O)[C@H](CCCCN)NC(=O)[C@H](CC(C)C)NC(=O)[C@H](CC(C)C)NC(=O)[C@H](CCCCN)NC(=O)[C@H](CCCCN)NC(=O)[C@H](CC(C)C)NC(=O)[C@@H](N)CC(C)C)C(N)=O (H-LLKKLLKELLKKLL-NH2) ?
## Result 1.15

## Task Would you kindly share the measured selectivity ratio for CC(C)C[C@H](NC(=O)[C@H](CCCCN)NC(=O)[C@H](CCCCN)NC(=O)[C@H](CC(C)C)NC(=O)[C@H](CC(C)C)NC(=O)[C@H](CCCCN)NC(=O)[C@H](CCCCN)NC(=O)[C@H](CC(C)C)NC(=O)[C@H](CC(C)C)NC(=O)[C@H](CCCCN)NC(=O)[C@H](CCCCN)NC(=O)[C@H](CC(C)C)NC(=O)[C@@H](N)CC(C)C)C(=O)N[C@@H](CC(=O)O)C(N)=O (H-LLKKLLKKLLKKLD-NH2) ?
## Result 31.1

## Task Would you kindly share the measured selectivity ratio for CC(C)C[C@H](NC(=O)[C@H](CCCCN)NC(=O)[C@H](CC(C)C)NC(=O)[C@H](CC(C)C)NC(=O)[C@H](CCCCN)NC(=O)[C@H](CCCCN)NC(=O)[C@H](CC(C)C)NC(=O)[C@H](CC(C)C)NC(=O)[C@H](CCCCN)NC(=O)[C@H](CCCCN)NC(=O)[C@H](CC(C)C)NC(=O)[C@H](CC(C)C)NC(=O)[C@H](CCCCN)NC(=O)[C@@H](N)CCCCN)C(N)=O (H-KKLLKKLLKKLLKL-NH2) ?
## Result 10.3

Data provenance: ChEMBL document CHEMBL5584231
